Assayed Target: GST-hRIPK1 (8-327) (Homo sapiens (Human))
Sequence (Q13546 8-327): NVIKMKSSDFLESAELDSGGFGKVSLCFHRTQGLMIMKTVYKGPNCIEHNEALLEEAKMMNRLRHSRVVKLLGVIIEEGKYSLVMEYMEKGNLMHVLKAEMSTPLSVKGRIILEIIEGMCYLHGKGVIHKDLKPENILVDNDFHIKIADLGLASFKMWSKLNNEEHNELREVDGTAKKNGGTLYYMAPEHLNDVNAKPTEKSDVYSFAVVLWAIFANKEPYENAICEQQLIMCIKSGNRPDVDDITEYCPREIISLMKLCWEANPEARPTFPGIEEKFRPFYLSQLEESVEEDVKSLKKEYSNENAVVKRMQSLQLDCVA
Measurement Notes: Fluorescent Polarization Binding (FP Binding) assay
pIC50: −log10 of the molar value.
Measured Attribute: pIC50

CN1C(=O)[C@@H](NC(=O)c2nnc(Cc3ccccc3)[nH]2)COc2cccnc21 | 6.00 to 10.00

* * *

Tested on: human cryopreserved hepatocytes
Measurement Notes: Metabolic stability (hepatocytes)
Format: in vitro ADME
Stated Conditions: well-stirred model
Measured Attribute: Human hepatocyte CLhep Avg (mL/min/kg)

CN1C(=O)[C@@H](NC(=O)c2cc(C3(c4ccccc4)CC3)on2)COc2cccnc21 | 19
CN1C(=O)[C@@H](NC(=O)c2cc(Cc3ccccc3)on2)COc2ccccc21 [C, reference compound] | 19
CN1C(=O)[C@@H](NC(=O)c2nnc(C3(c4ccccc4)CC3)o2)COc2cccnc21 | 6.3
CN1C(=O)[C@@H](NC(=O)c2nnc(Cc3ccccc3)[nH]2)[C@H]2C[C@H]2c2cccnc21 [Example 75A] | 9.1
